molecular target: Neuropilin-1 (Homo sapiens) (UniProt O14786); assay: NRP-1 b1b2 CendR peptide binding inhibitors, dose response, biochemical, FP and AlphaScreen panel (AID 651650); settings: NRP-1 b1b2 / RPARPAR peptide binding, FP or AlphaScreen; AlphaScreen, mean of runs
Sequence (O14786 whole entry, looked up): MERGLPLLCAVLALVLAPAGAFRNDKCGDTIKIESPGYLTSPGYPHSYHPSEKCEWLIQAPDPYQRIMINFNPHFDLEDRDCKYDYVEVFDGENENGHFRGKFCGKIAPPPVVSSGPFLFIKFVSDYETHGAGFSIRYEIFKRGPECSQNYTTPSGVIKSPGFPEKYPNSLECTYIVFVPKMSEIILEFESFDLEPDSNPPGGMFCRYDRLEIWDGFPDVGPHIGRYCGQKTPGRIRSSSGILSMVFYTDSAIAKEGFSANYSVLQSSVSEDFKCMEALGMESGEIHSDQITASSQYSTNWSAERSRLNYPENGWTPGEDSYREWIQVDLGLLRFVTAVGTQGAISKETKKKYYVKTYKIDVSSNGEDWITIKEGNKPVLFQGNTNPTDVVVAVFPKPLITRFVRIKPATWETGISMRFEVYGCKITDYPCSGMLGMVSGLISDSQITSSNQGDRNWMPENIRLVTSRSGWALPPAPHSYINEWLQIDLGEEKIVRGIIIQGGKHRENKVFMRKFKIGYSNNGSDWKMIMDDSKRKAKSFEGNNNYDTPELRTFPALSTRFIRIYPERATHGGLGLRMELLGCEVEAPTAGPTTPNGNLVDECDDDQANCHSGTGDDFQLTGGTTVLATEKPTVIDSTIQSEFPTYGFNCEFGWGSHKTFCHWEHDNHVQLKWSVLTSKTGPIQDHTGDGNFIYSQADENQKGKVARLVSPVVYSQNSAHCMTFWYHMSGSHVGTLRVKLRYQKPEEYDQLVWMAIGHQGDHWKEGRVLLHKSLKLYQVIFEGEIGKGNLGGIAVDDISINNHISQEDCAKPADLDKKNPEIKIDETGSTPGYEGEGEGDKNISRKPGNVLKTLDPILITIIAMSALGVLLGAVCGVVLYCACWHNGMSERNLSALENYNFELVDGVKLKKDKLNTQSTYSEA
Calls of active or inactive are those of the source.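 How the source made its calls: active means mean IC50 below 20 µM in each of the two panels, so potent in both; inactive means the rest.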
Assay readout: IC50

# input molecule: CCOc1ccc(/C=C2/Sc3ccc(C(=O)NCC4CCCO4)cc3N(C)C2=O)cc1OC (stereo not drawn) ; wanted: its IC50 > 100 µM (inactive)

# input molecule: `CCOC(=O)Cc1ccc(NS(=O)(=O)c2ccc(SC)cc2)cc1` ; wanted: its IC50 > 100 µM (inactive)

# input molecule: `COc1cccc(OCC(=O)NNC(=S)Nc2ccc(Cl)cc2Cl)c1` ; wanted: its IC50 > 100 µM (inactive)
